Assignment: determine reported IC50 for the given compounds.
target: activated p38 (Homo sapiens); experiment: Inhibition of phosphorylation of EGF receptor peptide ("kinase"); conditions: inhibition of phosphorylation of EGF receptor peptide by activated p38
Sequence (Q16539 whole entry): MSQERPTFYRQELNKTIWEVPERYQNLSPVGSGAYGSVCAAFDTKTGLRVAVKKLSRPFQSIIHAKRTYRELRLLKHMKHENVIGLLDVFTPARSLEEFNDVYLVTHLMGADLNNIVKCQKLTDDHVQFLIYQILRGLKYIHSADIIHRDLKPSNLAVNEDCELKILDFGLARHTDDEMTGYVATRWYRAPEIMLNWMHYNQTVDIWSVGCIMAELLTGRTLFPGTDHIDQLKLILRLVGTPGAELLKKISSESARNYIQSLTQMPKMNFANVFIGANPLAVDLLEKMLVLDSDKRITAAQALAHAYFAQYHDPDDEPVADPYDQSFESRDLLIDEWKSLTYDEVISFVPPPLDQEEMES

Tell us which IC50 value is on record for Nc1ccc(Cl)c(C2=C3C=CC(Sc4ccc(F)cc4)=NN3CNC2=O)c1Cl ≤ 100 nM

Tell us which IC50 value is on record for NC(=O)C(c1cccc(-c2ccccc2)n1)c1c(F)cccc1F (centres unmarked) ≥ 1000 nM

Tell us which IC50 value is on record for NC(=O)C(c1cccc(-c2ccccc2CN2CCCC2)n1)c1c(Cl)cccc1Cl (centres unmarked) ≥ 1000 nM

Tell us which IC50 value is on record for Cc1ccc(-c2cccc(C(C(N)=O)c3c(F)cccc3Cl)n2)cc1 (centres unmarked) ≥ 1000 nM

Tell us which IC50 value is on record for Cc1cc(F)ccc1-c1cccc(C(C(N)=O)c2c(F)cccc2Cl)n1 (centres unmarked) 100 to 1000 nM

Tell us which IC50 value is on record for COc1cc(Cl)c(-c2c(=O)ncn3nc(Sc4ccc(F)cc4)ccc23)cc1OC 100 to 1000 nM

Tell us which IC50 value is on record for Nc1ccc(C2=C3C=CC(Sc4ccc(F)cc4)=NN3CNC2=O)c(Cl)c1 ≤ 100 nM

Tell us which IC50 value is on record for O=c1ncn2nc(Sc3ccc(F)cc3Cl)ccc2c1-c1cc2c(cc1Cl)OCO2 100 to 1000 nM

Tell us which IC50 value is on record for NC(=O)C(c1cccc(-c2ccccc2CNCC(O)CO)n1)c1c(Cl)cccc1Cl (centres unmarked) ≥ 1000 nM

Tell us which IC50 value is on record for Cc1cc(F)ccc1SC1=NN2CNC(=O)C(c3c(Cl)cccc3Cl)=C2C=C1 ≤ 100 nM

Tell us which IC50 value is on record for NC(=O)C(c1cccc(-c2ccc(F)cc2F)n1)c1c(Cl)cccc1Cl (centres unmarked) ≤ 100 nM

Tell us which IC50 value is on record for NC(=O)C(c1cccc(-c2ccc(Cl)cc2Cl)n1)c1c(Cl)cccc1Cl (centres unmarked) ≤ 100 nM

Tell us which IC50 value is on record for O=C1NCN2N=C(Sc3ccccc3O)C=CC2=C1c1c(Cl)cccc1Cl ≤ 100 nM

Tell us which IC50 value is on record for NC(=O)C(c1cccc(-c2cccc([N+](=O)[O-])c2)n1)c1c(Cl)cccc1Cl (centres unmarked) ≥ 1000 nM

Tell us which IC50 value is on record for Nc1cc(C(F)(F)F)ccc1SC1=NN2CNC(=O)C(c3c(Cl)cccc3Cl)=C2C=C1 ≥ 1000 nM

Tell us which IC50 value is on record for NC(=O)C(c1cncc(-c2ccccc2)n1)c1c(Cl)cccc1Cl (centres unmarked) 100 to 1000 nM

Tell us which IC50 value is on record for NC(=O)C(c1cccc(-c2cc(F)c(F)c(F)c2)n1)c1c(Cl)cccc1Cl (centres unmarked) ≤ 100 nM

----------
test system: IL-1 production in LPS-stimulated PBMCs; experiment: Inhibition of IL-1 production in LPS-stimulated PBMCs ("cell"); type: cell-based, human; settings: Homo sapiens, PBMC
measure-name: IC50

Tell us which IC50 value is on record for Cc1cc(Cl)ccc1Sc1ccc(C(C(N)=O)c2c(Cl)cccc2Cl)nn1 (centres unmarked) [Compound 206] ≥ 500 nM

Tell us which IC50 value is on record for CNCc1ccccc1-c1cccc(C(C(N)=O)c2c(Cl)cccc2Cl)n1 (centres unmarked) [Compound 303] ≥ 500 nM

Tell us which IC50 value is on record for O=C1NCN2N=C(Sc3ccccc3CNc3ncc[nH]3)C=CC2=C1c1c(Cl)cccc1Cl [Compound 123] 100 to 500 nM

Tell us which IC50 value is on record for NC(=O)C(c1cccc(-c2ccc(F)c(Cl)c2)n1)c1c(F)cccc1Cl (centres unmarked) [Compound 333] ≥ 500 nM

Tell us which IC50 value is on record for COc1ccc(-c2c(=O)ncn3nc(Sc4ccc(F)cc4)ccc23)c(Cl)c1OC [Compound 36] ≥ 500 nM

Tell us which IC50 value is on record for O=C1NCN2N=C(Sc3ccc(F)cc3)C=CC2=C1c1cc2c(cc1Cl)OCO2 [Compound 129] ≤ 100 nM

Tell us which IC50 value is on record for NC(=O)C(c1cccc(-c2cccc(F)c2)n1)c1c(Cl)cccc1Cl (centres unmarked) [Compound 323] 100 to 500 nM

Tell us which IC50 value is on record for Cc1cc(Sc2ccc3c(-c4c(Cl)cccc4Cl)c(=O)ncn3n2)c(Cl)cc1F [Compound 41] ≤ 100 nM
